The measured values listed here are drawn from the supplement of paper PMC10567573.

# Method summary: protein stability index of a GFP-peptide fusion (GPS, HEK-293T) (PSI 1-6); higher = more stable;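 note: 24-mer peptide tiles fused after GFP, lentivirally expressed, FACS-sorted into six equal bins by GFP/DsRed ratio, decoded by Illumina sequencing, PSI is the read-weighted mean bin number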
# Condition details: treatment: MLN4924 1 uM, 8 h; c terminus: a fixed tail appended
Reported endpoint: protein stability index

>>> test_result("FVLYFLLACWTYGISVPSGLFVPS [CLCN6]")
3.09
>>> test_result("GRRQRKSEKRRDPPNGPNLPMATV [WASL]")
4.47
>>> test_result("EQCVSFNSHVYNGRTHQWKPLYPD [ADAMTSL2]")
3.08
>>> test_result("TKEVMNKYKVHGKEILRTLQDVFC [PPEF2]")
2.65

Q: Give its protein stability index value. Item: LDSEIKKNSDGMEAAGVQIQMVNE [CD207]
Result: 5.22
